The next entries give measured pIC50 for uPAR-expressing HEC-265 human endometrial adenocarcinoma cells (Homo sapiens).
pIC50: −log10 of the molar value. Where a SMILES comes first, the peptide text is derived from it. Bridges are numbered along the chain shown (N, C = ends). [ ]: non-standard residue; d: D form. The star is where a group is joined. DOTA = O=C(O)CN1CCN(CC(=O)O)CCN(CC(=O)*)CCN(CC(=O)O)CC1; Pro(cis-4-F) = O=C(O)[C@@H]1C[C@H](F)CN1; Dopa = N[C@@H](Cc1ccc(O)c(O)c1)C(=O)O; Hyp = O=C(O)[C@@H]1C[C@@H](O)CN1; Cit = NC(=O)NCCC[C@H](N)C(=O)O; Butoxycarbonyl = CCCCOC(=O)*; Orn = NCCC[C@H](N)C(=O)O; Nva = CCC[C@H](N)C(=O)O; Pentanoyl = CCCCC(=O)*; Ahx = NCCCCCC(=O)O

compound	pIC50
CC[C@H](C)[C@@H]1NC(=O)[C@@H](C)NC(=O)[C@@H]2CCCN2C(=O)[C@H](Cc2ccccc2)NC(=O)[C@H](Cc2ccc(O)cc2)NC(=O)[C@H](CCC(N)=O)NC(=O)[C@H](CCCNC(=N)N)NC(=O)[C@@H](NC(=O)[C@H](CC(C)C)NC(=O)CCCCCNC(=O)CN2CCN(CC(=O)O)CCN(CC(=O)O)CCN(CC(=O)O)CC2)CSSC[C@@H](C(N)=O)NC(=O)[C@H](CC(C)C)NC1=O [UPAR-291] ({DOTA-Ahx}-LCRQYFP[dA]ILC-NH2; disulfide 2-11)	≥ 8.00
CCCCC(=O)N[C@H]1CSSC[C@@H](C(=O)NCC)NC(=O)[C@H](CCC)NC(=O)[C@H]([C@@H](C)CC)NC(=O)[C@@H]2C[C@@H](O)CN2C(=O)[C@@H]2CCCN2C(=O)[C@H](Cc2ccccc2)NC(=O)[C@H](Cc2ccc(O)cc2)NC(=O)[C@H](CCC(N)=O)NC(=O)[C@H](CCCNC(N)=O)NC1=O [UPAR-146] (Pentanoyl-C[Cit]QYFP[Hyp]I[Nva]C-NHEt; disulfide 1-10)	7.50 to 7.90
CCCCOC(=O)N[C@H]1CSSC[C@@H](C(N)=O)NC(=O)[C@H](CCC)NC(=O)[C@H]([C@@H](C)CC)NC(=O)[C@@H]2C[C@@H](O)CN2C(=O)[C@@H]2C[C@H](F)CN2C(=O)[C@H](Cc2ccccc2)NC(=O)[C@H](Cc2ccc(O)c(O)c2)NC(=O)[C@H](CCCNC(=O)CN2CCN(CC(=O)O)CCN(CC(=O)O)CCN(CC(=O)O)CC2)NC(=O)[C@H]([C@@H](C)O)NC1=O [UPAR-280] (Butoxycarbonyl-CT[Orn](DOTA)[Dopa]F[Pro(cis-4-F)][Hyp]I[Nva]C-NH2; disulfide 1-10)	≥ 8.00
